Target: Glutamate NMDA receptor; Grin1/Grin2a (Rattus norvegicus, UniProt P35439+Q00959)
Sequence (Q00959 whole entry, other chains not shown): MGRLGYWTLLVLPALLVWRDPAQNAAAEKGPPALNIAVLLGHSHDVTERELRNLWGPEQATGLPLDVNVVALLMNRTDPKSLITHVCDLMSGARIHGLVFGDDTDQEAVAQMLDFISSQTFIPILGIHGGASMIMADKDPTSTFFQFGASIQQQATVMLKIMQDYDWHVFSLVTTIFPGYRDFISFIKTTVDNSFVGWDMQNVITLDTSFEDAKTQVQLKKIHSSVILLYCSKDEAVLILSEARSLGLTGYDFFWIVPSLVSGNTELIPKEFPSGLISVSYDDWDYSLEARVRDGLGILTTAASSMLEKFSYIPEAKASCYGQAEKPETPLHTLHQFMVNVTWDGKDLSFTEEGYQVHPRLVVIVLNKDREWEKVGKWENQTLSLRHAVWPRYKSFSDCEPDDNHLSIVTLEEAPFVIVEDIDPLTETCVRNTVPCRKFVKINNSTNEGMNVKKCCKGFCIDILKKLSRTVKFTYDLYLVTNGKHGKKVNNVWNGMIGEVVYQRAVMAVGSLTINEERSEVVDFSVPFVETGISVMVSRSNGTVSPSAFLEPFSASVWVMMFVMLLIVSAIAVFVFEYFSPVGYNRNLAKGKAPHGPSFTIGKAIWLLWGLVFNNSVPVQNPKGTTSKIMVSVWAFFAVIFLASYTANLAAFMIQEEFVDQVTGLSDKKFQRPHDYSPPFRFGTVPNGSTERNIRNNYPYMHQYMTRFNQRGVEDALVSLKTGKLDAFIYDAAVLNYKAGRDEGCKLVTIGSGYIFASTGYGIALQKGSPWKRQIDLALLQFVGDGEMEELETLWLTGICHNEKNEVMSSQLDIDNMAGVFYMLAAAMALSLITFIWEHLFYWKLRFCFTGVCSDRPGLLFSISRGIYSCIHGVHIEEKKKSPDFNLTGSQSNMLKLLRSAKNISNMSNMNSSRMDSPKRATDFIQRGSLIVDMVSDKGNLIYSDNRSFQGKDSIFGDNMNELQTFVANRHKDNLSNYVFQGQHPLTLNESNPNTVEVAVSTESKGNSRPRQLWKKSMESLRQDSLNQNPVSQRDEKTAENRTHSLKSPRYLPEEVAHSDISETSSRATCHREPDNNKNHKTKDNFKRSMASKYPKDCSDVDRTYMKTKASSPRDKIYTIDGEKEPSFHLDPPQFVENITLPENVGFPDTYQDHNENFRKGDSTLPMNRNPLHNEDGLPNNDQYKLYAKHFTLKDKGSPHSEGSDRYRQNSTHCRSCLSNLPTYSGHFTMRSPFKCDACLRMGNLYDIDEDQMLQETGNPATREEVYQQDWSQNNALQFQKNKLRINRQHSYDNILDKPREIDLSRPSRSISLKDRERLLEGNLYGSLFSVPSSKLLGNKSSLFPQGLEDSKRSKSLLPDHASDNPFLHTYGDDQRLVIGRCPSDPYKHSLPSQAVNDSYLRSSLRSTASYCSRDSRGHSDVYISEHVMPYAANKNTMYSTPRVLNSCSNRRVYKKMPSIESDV
Assay: Antagonistic activity against rat NR1A/2A receptor, expressed in Xenopus oocytes
Format: functional, cell-based, Oocyte
Overview of reported IC50 across a group of compounds:
Numbers only; they are read as µM.

For orientation, consider the following solved cases.
| item.smiles | test.target | readout.unit | IC50 |
| --- | --- | --- | --- |
| Cc1ccc(C#CCCN2CCC(Cc3ccccc3)CC2)cc1 | Glutamate NMDA receptor; Grin1/Grin2a (Rattus norvegicus, UniProt P35439+Q00959) | µM | 42 |
| Cc1ccc(CC2CCN(CCC#Cc3ccc(N)cc3)CC2)cc1 | Glutamate NMDA receptor; Grin1/Grin2a (Rattus norvegicus, UniProt P35439+Q00959) | µM | 75 |
| Cc1ccc(CC2(O)CCN(CCC#Cc3ccc(N)cc3)CC2)cc1 | Glutamate NMDA receptor; Grin1/Grin2a (Rattus norvegicus, UniProt P35439+Q00959) | µM | 68 |
| Nc1ccc(C#CCCCN2CCC(Cc3ccccc3)CC2)cc1 | Glutamate NMDA receptor; Grin1/Grin2a (Rattus norvegicus, UniProt P35439+Q00959) | µM | 12 |

From here, focus on the item given below.
System Glutamate NMDA receptor; Grin1/Grin2a (Rattus norvegicus, UniProt P35439+Q00959). Read-out IC50. Item `Clc1ccc(C#CCCN2CCC(Cc3ccccc3)CC2)cc1` . Report value. 47

---

Biological target: Adrenergic receptor alpha-1 (Rattus norvegicus, UniProt P15823+P23944+P43140)
Sequence (P15823 whole entry): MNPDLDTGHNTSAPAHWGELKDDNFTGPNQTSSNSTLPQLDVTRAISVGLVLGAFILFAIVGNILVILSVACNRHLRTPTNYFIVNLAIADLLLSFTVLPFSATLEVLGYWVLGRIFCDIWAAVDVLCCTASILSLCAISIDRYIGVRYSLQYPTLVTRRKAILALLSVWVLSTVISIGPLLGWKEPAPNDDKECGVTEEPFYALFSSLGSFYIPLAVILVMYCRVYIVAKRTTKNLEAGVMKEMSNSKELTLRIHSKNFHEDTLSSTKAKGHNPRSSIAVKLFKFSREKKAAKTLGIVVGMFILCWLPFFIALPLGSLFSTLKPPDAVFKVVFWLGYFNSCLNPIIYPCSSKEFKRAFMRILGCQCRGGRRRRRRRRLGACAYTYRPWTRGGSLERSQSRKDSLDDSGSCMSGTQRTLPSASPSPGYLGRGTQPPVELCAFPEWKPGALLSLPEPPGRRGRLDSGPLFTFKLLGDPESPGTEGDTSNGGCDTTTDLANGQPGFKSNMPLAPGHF
Sequence (P23944 whole entry): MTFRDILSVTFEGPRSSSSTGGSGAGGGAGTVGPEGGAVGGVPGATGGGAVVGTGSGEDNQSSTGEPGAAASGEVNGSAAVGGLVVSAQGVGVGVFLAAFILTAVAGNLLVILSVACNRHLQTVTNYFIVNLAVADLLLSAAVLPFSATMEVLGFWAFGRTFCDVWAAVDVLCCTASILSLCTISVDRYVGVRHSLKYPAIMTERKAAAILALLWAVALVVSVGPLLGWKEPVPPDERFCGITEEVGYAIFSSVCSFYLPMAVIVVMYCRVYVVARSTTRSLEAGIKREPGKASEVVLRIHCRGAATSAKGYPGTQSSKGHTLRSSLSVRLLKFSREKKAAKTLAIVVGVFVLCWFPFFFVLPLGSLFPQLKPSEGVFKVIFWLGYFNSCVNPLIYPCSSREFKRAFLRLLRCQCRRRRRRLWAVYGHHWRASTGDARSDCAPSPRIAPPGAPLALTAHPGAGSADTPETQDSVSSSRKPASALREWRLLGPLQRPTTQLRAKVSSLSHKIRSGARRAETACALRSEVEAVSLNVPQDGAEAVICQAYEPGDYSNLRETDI
Sequence (P43140 whole entry): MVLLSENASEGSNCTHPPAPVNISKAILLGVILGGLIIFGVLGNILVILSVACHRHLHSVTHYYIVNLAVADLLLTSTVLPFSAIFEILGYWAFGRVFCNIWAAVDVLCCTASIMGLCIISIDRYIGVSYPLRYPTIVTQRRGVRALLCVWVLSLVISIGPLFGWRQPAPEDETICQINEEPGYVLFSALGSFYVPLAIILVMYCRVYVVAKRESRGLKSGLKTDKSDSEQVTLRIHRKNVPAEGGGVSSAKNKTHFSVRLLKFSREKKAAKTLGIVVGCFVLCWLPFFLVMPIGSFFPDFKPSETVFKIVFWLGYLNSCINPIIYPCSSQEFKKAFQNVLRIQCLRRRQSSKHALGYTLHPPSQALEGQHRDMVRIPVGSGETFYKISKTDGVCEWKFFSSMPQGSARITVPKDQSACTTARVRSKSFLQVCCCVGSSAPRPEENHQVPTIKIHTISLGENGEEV
Experiment: The compound was tested for binding affinity against Alpha-1 adrenergic receptor from rat using [3H]prazosin as radioligand
Type: protein assay
Overview of reported IC50 across a group of compounds:
Dear colleague, please send the value followed by its unit.

For orientation, consider the following solved cases.
| item.smiles | IC50 |
| --- | --- |
| CS(=O)(=O)Nc1ccc(C#CCN2CCC(Cc3ccccc3)CC2)cc1 | 2.2 µM |
| CS(=O)(=O)Nc1ccc(C#CCCN2CCC(Cc3ccccc3)CC2)cc1 | 1.2 µM |
| CC(=O)Nc1ccc(C#CCCN2CCC(Cc3ccccc3)CC2)cc1 | 1.1 µM |

From here, focus on the item given below.
System Adrenergic receptor alpha-1 (Rattus norvegicus, UniProt P15823+P23944+P43140). Read-out IC50. Item `NS(=O)(=O)c1ccc(C#CCCN2CCC(Cc3ccccc3)CC2)cc1` . Report value. 1.4 µM

---

Target: Glutamate NMDA receptor; Grin1/Grin2a (Rattus norvegicus, UniProt P35439+Q00959)
Experiment: Antagonistic activity against rat N-methyl-D-aspartate glutamate receptor 1/2A, expressed in Xenopus oocytes
Format: functional, cell-based, Oocyte
value.kind: IC50

For orientation, consider the following solved cases.
| item.smiles | IC50 |
| --- | --- |
| NC(=O)c1ccc(C#CCCN2CCC(Cc3ccccc3)CC2)cc1 | > 100 µM |
| CS(=O)(=O)Nc1ccc(C#CCN2CCC(Cc3ccccc3)CC2)cc1 | > 100 µM |
| CC(=O)Nc1ccc(C#CCCN2CCC(Cc3ccccc3)CC2)cc1 | > 100 µM |

Note IC50 for the molecule shown: `NS(=O)(=O)c1ccc(C#CCCN2CCC(Cc3ccccc3)CC2)cc1` 22 µM

---

Target: Glutamate NMDA receptor; Grin1/Grin2c (Rattus norvegicus, UniProt P35439+Q00961)
Sequence (Q00961 whole entry, other chains not shown): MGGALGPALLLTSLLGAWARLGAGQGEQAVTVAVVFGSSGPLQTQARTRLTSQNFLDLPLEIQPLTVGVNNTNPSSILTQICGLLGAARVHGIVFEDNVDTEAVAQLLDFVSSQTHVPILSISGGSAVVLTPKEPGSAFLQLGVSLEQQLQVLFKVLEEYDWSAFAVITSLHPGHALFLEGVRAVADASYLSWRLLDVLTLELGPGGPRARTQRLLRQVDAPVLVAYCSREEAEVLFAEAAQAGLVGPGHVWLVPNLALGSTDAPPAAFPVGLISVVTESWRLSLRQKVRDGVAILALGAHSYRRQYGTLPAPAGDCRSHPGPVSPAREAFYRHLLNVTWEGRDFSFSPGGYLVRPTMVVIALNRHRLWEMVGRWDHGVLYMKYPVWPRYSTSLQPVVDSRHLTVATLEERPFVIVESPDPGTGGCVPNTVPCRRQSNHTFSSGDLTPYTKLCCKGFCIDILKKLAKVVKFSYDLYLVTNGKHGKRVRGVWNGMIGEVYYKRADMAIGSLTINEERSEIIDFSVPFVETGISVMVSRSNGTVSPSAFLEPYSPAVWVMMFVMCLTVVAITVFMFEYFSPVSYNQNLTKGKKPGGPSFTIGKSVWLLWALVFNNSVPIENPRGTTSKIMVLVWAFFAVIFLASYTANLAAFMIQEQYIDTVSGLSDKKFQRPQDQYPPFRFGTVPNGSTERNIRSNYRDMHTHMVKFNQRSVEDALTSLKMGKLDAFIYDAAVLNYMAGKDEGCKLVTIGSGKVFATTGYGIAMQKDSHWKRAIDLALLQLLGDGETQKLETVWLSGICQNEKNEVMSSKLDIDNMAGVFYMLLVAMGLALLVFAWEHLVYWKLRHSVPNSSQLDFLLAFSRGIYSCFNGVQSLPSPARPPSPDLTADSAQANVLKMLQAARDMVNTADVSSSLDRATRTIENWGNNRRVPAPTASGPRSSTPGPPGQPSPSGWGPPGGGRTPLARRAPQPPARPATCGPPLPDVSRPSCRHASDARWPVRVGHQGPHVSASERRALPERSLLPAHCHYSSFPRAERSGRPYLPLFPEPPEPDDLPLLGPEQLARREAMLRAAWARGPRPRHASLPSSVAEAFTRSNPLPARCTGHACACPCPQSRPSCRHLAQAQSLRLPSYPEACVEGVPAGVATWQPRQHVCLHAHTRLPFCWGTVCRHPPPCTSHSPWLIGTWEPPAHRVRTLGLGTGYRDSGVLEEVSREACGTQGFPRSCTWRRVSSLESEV
Experiment: The compound was tested for antagonistic activity against rat NR1A/2C receptor expressed in Xenopus oocytes
Assay type: functional, cell-based, Oocyte
value.kind: IC50

| item.smiles | IC50 |
| --- | --- |
| Cc1ccc(CC2CCN(CCC#Cc3ccc(N)cc3)CC2)cc1 | 27 µM |
| Nc1ccc(C#CCCCN2CCC(Cc3ccccc3)CC2)cc1 | > 100 µM |
| Clc1ccccc1C#CCCN1CCC(Cc2ccccc2)CC1 | > 100 µM |
| O=[N+]([O-])c1ccc(C#CCCN2CCC(Cc3ccccc3)CC2)cc1 | > 100 µM |

From here, focus on the item given below.
Note IC50 for the molecule shown: `Nc1ccccc1C#CCCN1CCC(Cc2ccccc2)CC1` > 100 µM

---

Biological target: Adrenergic receptor alpha-1 (Rattus norvegicus, UniProt P15823+P23944+P43140)
Test: Binding affinity against alpha-1 adrenergic receptor from rat using [3H]-prazosin as radioligand
Format: protein assay
value.kind: log10 IC50 (log10 of the value in nM)
Reminder: these figures are log10 of reported IC50, in nM before transformation.

| item.smiles | log10 IC50 |
| --- | --- |
| Nc1ccc(C#CCCN2CCC(Cc3ccccc3)CC2)cc1N | 3.00 |
| Nc1ccc(C#CCCN2CCC(O)(Cc3ccc(F)cc3)CC2)cc1 | 4.49 |
| Oc1ccc(C#CCCN2CCC(Cc3ccccc3)CC2)cc1 | 2.76 |
| Nc1ccc(C#CCCN2CCC(Cc3ccccc3)CC2)cc1 | 3.00 |

Note log10 IC50 for the compound shown: `Oc1ccc(C#CCN2CCC(Cc3ccccc3)CC2)cc1` 3.18

Note log10 IC50 for the compound shown: `Nc1ccc(C#CCCN2CCC(Cc3ccc(F)cc3)CC2)cc1` 2.85

Note log10 IC50 for the compound shown: `Cc1ccc(CC2CCN(CCC#Cc3ccc(N)cc3)CC2)cc1` 3.08

Note log10 IC50 for the compound shown: `Cc1ccc(CC2(O)CCN(CCC#Cc3ccc(N)cc3)CC2)cc1` 4.93

Note log10 IC50 for the compound shown: `Nc1ccc(C#CCCN2CCC(O)(Cc3ccccc3)CC2)cc1` 4.80

---

Target: Glutamate NMDA receptor; Grin1/Grin2a (Rattus norvegicus, UniProt P35439+Q00959)
Test: Antagonistic activity against rat NR1A/2A receptor, expressed in Xenopus oocytes
Format: functional, cell-based, Oocyte
value.kind: IC50

For orientation, consider the following solved cases.
| item.smiles | IC50 |
| --- | --- |
| Nc1ccc(C#CCCN2CCC(O)(Cc3ccccc3)CC2)cc1 | > 100 µM |
| Nc1ccc(C#CCCN2CCC(Cc3ccc(F)cc3)CC2)cc1 | 70 µM |
| O=[N+]([O-])c1ccc(C#CCCN2CCC(Cc3ccccc3)CC2)cc1 | > 100 µM |
| Nc1ccccc1C#CCCN1CCC(Cc2ccccc2)CC1 | 70 µM |
| COc1ccc(C#CCCN2CCC(Cc3ccccc3)CC2)cc1 | > 100 µM |

Note IC50 for the compound shown: `Nc1ccc(C#CCCN2CCC(O)(Cc3ccc(F)cc3)CC2)cc1` 29 µM

Note IC50 for the compound shown: `Nc1ccc(C#CCCN2CCC(Cc3ccccc3)CC2)cc1N` > 100 µM

Note IC50 for the compound shown: `Clc1ccccc1C#CCCN1CCC(Cc2ccccc2)CC1` 85 µM

Note IC50 for the compound shown: `Oc1ccc(C#CCCN2CCC(Cc3ccccc3)CC2)cc1` > 100 µM
